Taken from ChEMBL document CHEMBL2321672.

- test_target: Beta-secretase 1 (Homo sapiens, UniProt P56817)
- Sequence (P56817 whole entry): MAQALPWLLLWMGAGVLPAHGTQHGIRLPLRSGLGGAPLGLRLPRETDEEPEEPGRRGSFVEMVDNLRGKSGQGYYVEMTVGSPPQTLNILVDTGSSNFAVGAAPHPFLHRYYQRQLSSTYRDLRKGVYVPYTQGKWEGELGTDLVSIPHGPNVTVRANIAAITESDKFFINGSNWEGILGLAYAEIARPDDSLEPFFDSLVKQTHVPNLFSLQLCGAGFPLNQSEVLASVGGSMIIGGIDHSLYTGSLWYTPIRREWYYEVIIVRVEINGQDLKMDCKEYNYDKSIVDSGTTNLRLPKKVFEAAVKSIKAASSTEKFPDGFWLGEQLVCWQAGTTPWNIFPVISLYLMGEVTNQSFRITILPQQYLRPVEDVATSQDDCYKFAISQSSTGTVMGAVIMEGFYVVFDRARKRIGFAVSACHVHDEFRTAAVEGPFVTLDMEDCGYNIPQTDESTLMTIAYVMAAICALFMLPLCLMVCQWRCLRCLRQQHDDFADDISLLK
- assay_overview: Inhibition of recombinant BACE1 (unknown origin) using FAM-SEVNLDAEFK-TAMRA as substrate at 100 uM incubated for 30 mins prior to substrate addition by fluorimetric analysis relative to control
Listed compounds paired with reported inhibition
measured_parameter: inhibition

1. O=C(Cc1ccc(-c2ccccc2)cc1)NCc1ccccc1: 15.2%
2. NCc1ccc(CNC(=O)Cc2ccc(-c3c(F)c(F)c(F)c(F)c3F)cc2)cc1: 51.8%
3. NCc1ccc(CNC(=O)C(Cc2ccccc2)c2ccc(-c3ccccc3)cc2)cc1 (stereo unspecified): 102%
4. O=C(Cc1ccc(-c2ccccc2)cc1)NCc1ccc(CN2CCCC2)cc1: 24.4%
5. NCc1ccc(CNC(=O)Cc2ccc(-c3ccccc3)cc2)cc1: 35.6%

====

- test_target: Beta-secretase 1 (Homo sapiens, UniProt P56817)
- assay_overview: Inhibition of recombinant BACE1 (unknown origin) using FAM-SEVNLDAEFK-TAMRA as substrate at 100 uM incubated for 30 mins prior to substrate addition by fluorimetric analysis relative to control
The source made the active and inactive calls. The rule behind the calls is not given here.
measured_parameter: inhibition

1. NCc1ccc(CNC(=O)Cc2ccc(-c3ccccc3)c(O)c2)cc1: 28.1%
2. NCc1ccc(CNC(=O)Cc2ccc(-c3cc(C(F)(F)F)cc(C(F)(F)F)c3)cc2)cc1: 80.6%
3. NCc1ccc(CNC(=O)Cc2ccc(-c3ccc(O)cc3)cc2)cc1: 41.3%
4. CC(C)C(C(=O)NCc1ccc(CN)cc1)c1ccc(-c2ccccc2)cc1 (stereo not given): 66.1%
5. CCN(CC)Cc1ccc(CNC(=O)Cc2ccc(-c3ccccc3)cc2)cc1: 34.4%
6. NCc1ccc(CNC(=O)Cc2ccc(-c3cccc(C(F)(F)F)c3)cc2)cc1: 60.7%
7. CC[N+](CC)(CC)Cc1ccc(CNC(=O)Cc2ccc(-c3ccccc3)cc2)cc1: 44.1%
8. O=C(Cc1ccc(-c2ccccc2)cc1)NCc1ccc(CN2Cc3ccccc3C2)cc1: 70.1%
9. O=C(Cc1ccc(-c2ccccc2)cc1)Nc1ccc(Br)cc1: inactive
10. COc1ccc(NC(=O)Cc2ccc(-c3ccccc3)cc2)cc1: inactive
